# assayed_system: REFACTO® (recombinant factor VIII-like polypeptide consisting of amino acids 1-743 and 1638 through 2332 of human factor VIII) (human) (UniProt P00451)
# Sequence (P00451 20-762, chain 1 of 2): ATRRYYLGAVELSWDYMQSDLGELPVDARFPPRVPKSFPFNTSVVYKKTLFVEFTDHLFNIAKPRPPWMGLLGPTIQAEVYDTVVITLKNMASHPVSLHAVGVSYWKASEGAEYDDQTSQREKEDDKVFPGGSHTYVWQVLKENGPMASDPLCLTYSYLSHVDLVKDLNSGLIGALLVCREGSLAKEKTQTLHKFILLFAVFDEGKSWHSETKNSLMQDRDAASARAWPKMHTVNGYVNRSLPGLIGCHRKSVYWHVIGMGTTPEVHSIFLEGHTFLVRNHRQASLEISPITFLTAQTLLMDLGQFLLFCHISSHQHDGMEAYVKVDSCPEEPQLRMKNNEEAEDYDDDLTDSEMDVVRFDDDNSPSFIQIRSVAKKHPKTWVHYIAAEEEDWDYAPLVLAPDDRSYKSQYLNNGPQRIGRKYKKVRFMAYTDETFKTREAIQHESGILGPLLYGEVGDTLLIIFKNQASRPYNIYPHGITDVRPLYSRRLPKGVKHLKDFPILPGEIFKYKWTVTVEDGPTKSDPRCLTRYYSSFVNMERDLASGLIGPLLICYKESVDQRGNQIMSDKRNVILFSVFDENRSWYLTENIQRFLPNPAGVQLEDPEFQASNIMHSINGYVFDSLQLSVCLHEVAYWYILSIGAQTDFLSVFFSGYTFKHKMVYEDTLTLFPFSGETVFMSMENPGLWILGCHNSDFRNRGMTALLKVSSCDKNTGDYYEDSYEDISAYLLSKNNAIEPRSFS
# Sequence (P00451 1657-2351, chain 2 of 2): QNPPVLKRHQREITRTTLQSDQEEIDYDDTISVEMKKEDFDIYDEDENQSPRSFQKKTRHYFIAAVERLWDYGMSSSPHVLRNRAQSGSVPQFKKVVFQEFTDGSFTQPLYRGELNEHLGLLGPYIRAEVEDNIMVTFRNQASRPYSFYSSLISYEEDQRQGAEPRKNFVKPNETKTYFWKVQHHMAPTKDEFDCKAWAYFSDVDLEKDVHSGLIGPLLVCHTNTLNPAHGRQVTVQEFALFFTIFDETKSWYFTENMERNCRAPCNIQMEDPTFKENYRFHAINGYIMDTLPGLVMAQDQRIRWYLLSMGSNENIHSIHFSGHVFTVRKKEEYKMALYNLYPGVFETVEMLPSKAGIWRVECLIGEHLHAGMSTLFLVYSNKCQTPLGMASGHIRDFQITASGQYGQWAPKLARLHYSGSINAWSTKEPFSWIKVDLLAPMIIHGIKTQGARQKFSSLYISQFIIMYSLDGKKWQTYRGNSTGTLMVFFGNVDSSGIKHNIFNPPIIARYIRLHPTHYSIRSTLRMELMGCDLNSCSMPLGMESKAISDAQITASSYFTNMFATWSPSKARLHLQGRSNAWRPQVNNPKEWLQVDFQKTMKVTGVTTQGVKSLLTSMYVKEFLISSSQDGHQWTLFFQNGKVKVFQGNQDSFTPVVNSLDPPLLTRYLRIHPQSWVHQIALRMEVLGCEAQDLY
# assay_protocol: affinity column, peptide on Toyopearl Formyl 650-M; target in fraction by activity assay
Positions of bridges follow the written chain, without caps; N, C: chain ends. No end group written: not given here. *: point of attachment. NHNH2 = NN*
readout_type: % recovery, Flow (%)

Reference set, count: 5
{"columns": ["binder", "observed_value"],
 "data": [
  ["AEGTGDFCWVFPFHHCFDPGPEGGGS-NHNH2 (disulfide 8-16 (inferred)) [Affinity ligand CS-460]", 28.4],
  ["AEGTGDFHCIGVWFCLHDPGPEGGGS-NHNH2 (disulfide 9-15 (inferred)) [Affinity ligand CS-455]", 61.6],
  ["AEGTGDHPCGSWLRPCLHDPGPEGGGS-NHNH2 (disulfide 9-16 (inferred)) [Affinity ligand CS-453]", 0],
  ["AEGTGDFGCSWLFPCPFDPGPEGGGS-NHNH2 (disulfide 9-15 (inferred)) [Affinity ligand CS-456]", 4.8],
  ["AEGTGDHLCGAWFRPCDADPGPEGGGS-NHNH2 (disulfide 9-16 (inferred)) [Affinity ligand CS-454]", 2.2]
]}

(I) AEGTGDFCWVFPFQHCADPGPEGGGS-NHNH2 (disulfide 8-16 (inferred)) [Affinity ligand CS-459]
(II) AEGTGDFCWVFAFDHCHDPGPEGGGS-NHNH2 (disulfide 8-16 (inferred)) [Affinity ligand CS-458]
IN: # argmax over % recovery, Flow for candidates I and II Write down the label attached to your selection.
OUT: I
